// reported Solubility in 1000 ml of water per item
assay: Solubility in water; type: physicochemical; conditions: pH 6.5, 25° C.
Bridge positions count the residues as written; N and C are the ends. Peptide text beside a SMILES is read from it. I, II: the chains in the order shown.
Experimental Readout: Solubility in 1000 ml of water

| Compound | Recorded Value |
| --- | --- |
| N[C@@H](CSSC[C@H](N)C(=O)O)C(=O)O [Cystine, L-cystine] | 0.1 g |
| N[C@@H](CS)C(=O)NCCCC[C@H](NC(=O)[C@@H](N)CS)C(=O)O [Cys-Lys(Cys), N^2 -cysteinyl-N^6 -L-cysteinyl-L-lysine] (H-Cys-Lys(Cys)-OH) | > 50 g |
| N[C@@H](CCC(=O)N[C@@H](CSSC[C@H](N)C(=O)O)C(=O)O)C(=O)O [γ-Glu-Cys-Cys] | > 70 g |
| N[C@@H](CC(=O)O)C(=O)N[C@@H](CSSC[C@H](NC(=O)[C@@H](N)CC(=O)O)C(=O)O)C(=O)O [(Asp-Cys)2, N,N'-bis-α-aspartyl-L-cystine] (I: H-Asp-Cys-OH / II: H-Asp-Cys-OH; disulfide I:2-II:2) | > 50 g |

====

// reported remaining at 0.5 h, 2.46 mM per item
experiment: In vitro hydrolysis in mouse plasma; type: in vitro ADME, C3H/He mouse; details: male; C3H/He mouse plasma, 37° C., 30 minutes, mean of five mice; read-out: Residual amount in plasma (%)
Bridge positions count the residues as written; N and C are the ends. Peptide text beside a SMILES is read from it. I, II: the chains in the order shown.

| Compound | remaining at 0.5 h, 2.46 mM [%] |
| --- | --- |
| N[C@@H](CCC(=O)N[C@@H](CSSC[C@H](NC(=O)CC[C@H](N)C(=O)O)C(=O)O)C(=O)O)C(=O)O [(γ-Glu-Cys)2, L-glutamyl-L-cysteine disulfide] | 84 |
| C[C@H](N)C(=O)N[C@@H](CSSC[C@H](NC(=O)[C@H](C)N)C(=O)O)C(=O)O [(Ala-Cys)2, bis-α-L-alanyl-L-cystine, reference compound] (I: H-Ala-Cys-OH / II: H-Ala-Cys-OH; disulfide I:2-II:2) | 0 |
| N[C@@H](CCC(=O)N[C@@H](CSSC[C@H](N)C(=O)O)C(=O)O)C(=O)O | 53 |

====

test: Solubility in water; type: physicochemical; settings: pH 6.5, 25° C.
Bridge positions count the residues as written; N and C are the ends. Peptide text beside a SMILES is read from it. I, II: the chains in the order shown.
Experimental Readout: Solubility in 1000 ml of water

| Compound | Recorded Value |
| --- | --- |
| N[C@@H](CCC(=O)N[C@@H](CSSC[C@H](NC(=O)CC[C@H](N)C(=O)O)C(=O)O)C(=O)O)C(=O)O [(γ-Glu-Cys)2, L-glutamyl-L-cysteine disulfide] | > 70 g |
| C[C@H](N)C(=O)N[C@@H](CSSC[C@H](NC(=O)[C@H](C)N)C(=O)O)C(=O)O [(Ala-Cys)2, bis-α-L-alanyl-L-cystine, reference compound] (I: H-Ala-Cys-OH / II: H-Ala-Cys-OH; disulfide I:2-II:2) | > 50 g |
| C[C@H](NC(=O)[C@@H](N)CSSC[C@H](N)C(=O)N[C@@H](C)C(=O)O)C(=O)O [(Cys-Ala)2, L-cysteinyl-bis-L-alanine] (I: H-Cys-Ala-OH / II: H-Cys-Ala-OH; disulfide I:1-II:1) | 8.1 g |
| NCC(=O)N[C@@H](CSSC[C@H](NC(=O)CN)C(=O)O)C(=O)O [(Gly-Cys)2, bis-glycyl-L-cystine, reference compound] (I: H-Gly-Cys-OH / II: H-Gly-Cys-OH; disulfide I:2-II:2) | > 50 g |
